- assayOverview: chemical genetic growth profiling, strain panel (AID 1159580);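 note: tested at 20 µM; growth read once vehicle control cultures reached saturation at 30 °C; 1 = growth at the plate median or of vehicle wells; lower values mean less growth of the strain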
- measurementSetup: S. cerevisiae deletion strains, growth OD, locus YOR061W, strain CKA2
The campaign covered roughly 5,500 compounds. About 2,000 (36%) were called active. Roughly 18% stayed inconclusive and do not appear here. Cut-off read from the data, not from the text of the source: active = normalized growth mostly below about 0.91 (no sharp cut-off); inconclusive = no clear call, values can overlap the other calls; inactive = mostly above about 0.92. The list shows a part of the results.
Your answer must be one of the following: 1 for active, -1 for inactive

Please let me know the test result on file for C[C@@H]1CC[C@@]23CCC4(C)[C@@](C=CC5[C@@]6(C)CCC(=O)C(C)(C)C6CC[C@]54C)(OC2=O)C3[C@H]1C (stereo partly specified) .
-1

Outcome logged for `N#C/C(N=Cc1cc(Cl)cc(Cl)c1O)=C(\C#N)N=Cc1cc(Cl)cc(Cl)c1O` in this assay:
1

Identify the outcome logged in this assay for the compound shown: `Cc1ccc(Sc2ncccc2NS(=O)(=O)c2ccc(Cl)cc2)cc1`
-1

Write down the call the test reported for this compound. Item: `CC(C)(C)NC(=S)N/N=C\c1cc(Br)c(O)c(Br)c1`
-1

Per the records of this test, what outcome belongs to C[C@@H]1CC[C@@]23CCC4(C)[C@@](C=CC5[C@@]6(C)CC[C@H](O)C(C)(C)C6CC[C@]54C)(OC2=O)C3[C@H]1C (stereo partly specified) ?
-1

Outcome? `COc1ccc(-c2cc(=O)c3c(O)cc(O)c(-c4cc(-c5cc(=O)c6c(O)cc(O)cc6o5)ccc4OC)c3o2)cc1`
-1

Each compound tested received a call. Report the one for `C/C=C(/C)C(=O)O[C@@H]1Cc2c(ccc3ccc(=O)oc23)OC1(C)C` .
-1

How did this test come out for `C/C=C(\C)C(=O)O[C@@H]1c2c(ccc3ccc(=O)oc23)OC(C)(C)[C@@H]1OC(C)=O` ?
-1

Which outcome was assigned to CC(=O)O[C@@H]1CC2C(C)(CC[C@H](O)C2(C)C)C2CC[C@]3(C)C(=CC(=O)O[C@H]3c3ccoc3)C21C (stereo partly specified) in this test?
-1

Which result was noted for this compound in the test: CCCCC(=O)O[C@]1(C(=O)CO)[C@@H](C)CC2C3CCC4=CC(=O)C=C[C@]4(C)[C@@]3(F)C(O)C[C@@]21C (stereo partly specified)
-1

Test call, this compound: `Nc1ccc(S(=O)(=O)Nc2ncccn2)cc1`
-1

Source listed as PubChem BioAssay AID1159580.
